target: TNKS1 (Homo sapiens); construct: GST-tagged Tnks-1 (1023-1327 aa, prepared in-house); made in house; test: TNKS1 activity ELISA (autoparsylation assay); assay type: biochemical; details: GST-tagged Tnks-1 (1023-1327 aa), 10 μM bio-NAD, 1 hour at 30° C.
Sequence (O95271 1023-1327): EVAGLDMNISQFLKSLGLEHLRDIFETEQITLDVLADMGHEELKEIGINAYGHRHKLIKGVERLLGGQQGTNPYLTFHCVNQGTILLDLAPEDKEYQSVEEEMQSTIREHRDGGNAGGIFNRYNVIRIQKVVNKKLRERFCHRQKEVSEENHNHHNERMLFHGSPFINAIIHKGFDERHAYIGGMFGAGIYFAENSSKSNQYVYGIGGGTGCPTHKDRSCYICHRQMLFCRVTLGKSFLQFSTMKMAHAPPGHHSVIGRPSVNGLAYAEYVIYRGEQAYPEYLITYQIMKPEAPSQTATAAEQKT
Here, each record is paired with measured IC50 data.

molecule	units	IC50
CCN(C(=O)N1CCC(C(=O)c2ccc3c(C(=O)O)nn(C)c3c2)CC1)c1ccc(F)cc1	µM	0.000744
CN(C(=O)N1CCC(C(=O)c2ccc3c(c2)c(C(=O)O)nn3C)CC1)c1ccc(F)cc1	µM	0.115
CN(C(=O)N1CCC(C(=O)c2ccc3ncn(C)c3c2)CC1)c1cccc(C(=O)O)c1	µM	0.053
COc1ccc(N(C)C(=O)N2CCC(C(=O)c3ccc4c(c3)cc(C(=O)O)n4C)CC2)cc1	µM	0.0013

---

Biological target: TNKS2 (Homo sapiens, UniProt Q9H2K2)
Construct: GST-tagged Tnks-2 (873-1166 aa, prepared in-house); made in house
Sequence (Q9H2K2 873-1166): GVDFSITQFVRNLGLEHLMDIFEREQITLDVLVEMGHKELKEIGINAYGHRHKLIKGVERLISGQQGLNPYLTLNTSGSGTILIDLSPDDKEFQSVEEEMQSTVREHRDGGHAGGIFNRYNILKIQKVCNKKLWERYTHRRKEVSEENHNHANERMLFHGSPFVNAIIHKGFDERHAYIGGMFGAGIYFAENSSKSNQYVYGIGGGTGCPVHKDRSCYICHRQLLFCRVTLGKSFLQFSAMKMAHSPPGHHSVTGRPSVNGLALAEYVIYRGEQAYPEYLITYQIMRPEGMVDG
Experiment: TNKS2 activity ELISA (autoparsylation assay)
Format: biochemical
Settings: GST-tagged Tnks-2 (873-1166 aa), 10 μM bio-NAD, 1 hour at 30° C.
Procedure: Description of the TNKS1 and TNKS2 ELISA Assay Biochemical activity testing of TNKS 1 and 2: activity ELISA (Autoparsylation assay) For analysis of autoparsylation activity of TNKS 1 and 2 an activity ELISA is performed: In the first step GST tagged TNKS is captured on a Glutathione coated plate. Then the activity assay with biotinylated NAD is performed in the absence/presence of the compounds. […] The amount of biotinylated resp. autoparsylated TNKS is detected with a luminescence substrate for HRP. […]
Criterion: IC50 strictly less than 1 nM. Met: T. Not met: F.

molecule	group label
CN(C(=O)N1CCC(C(=O)c2ccc3cnn(C)c3c2)CC1)c1cccc(C(=O)O)c1 [Compound C19]	F
CCN(C(=O)N1CCC(C(=O)c2ccc3c(c2)ncn3C)CC1)c1cccc(C(=O)O)c1 [Compound C33]	F
CCN(C(=O)N1CCC(C(=O)c2ccc3cc(C(=O)O)n(C)c3c2)CC1)c1ccc(F)cc1 [Compound C2]	T
CCN(C(=O)N1CCC(C(=O)c2ccc3c(C(=O)O)nn(C)c3c2)CC1)c1ccc(F)cc1 [Compound C10]	T
CN(C(=O)N1CCC(C(=O)c2ccc3c(c2)ncn3C)CC1)c1cccc(C(=O)O)c1 [Compound C32]	F
CN(C(=O)N1CCC(C(=O)c2ccc3ncn(C)c3c2)CC1)c1cccc(C(=O)O)c1 [Compound C28]	F
COc1ccc(N(C)C(=O)N2CCC(C(=O)c3ccc4c(C(=O)O)nn(C)c4c3)CC2)cc1 [Compound C11]	T
COc1ccc(N(C)C(=O)N2CCC(C(=O)c3ccc4c(c3)c(C(=O)O)nn4C)CC2)cc1 [Compound C15]	F

---

molecular target: TNKS1 (Homo sapiens); construct: GST-tagged Tnks-1 (1023-1327 aa, prepared in-house); made in house; assay: TNKS1 activity ELISA (autoparsylation assay); assay type: biochemical; conditions: GST-tagged Tnks-1 (1023-1327 aa), 10 μM bio-NAD, 1 hour at 30° C.
Consider the following molecules and their measured IC50 readings.
outcome measure: IC50 (nM)

molecule	units	quantitative result
CCN(C(=O)N1CCC(C(=O)c2ccc3ncn(C)c3c2)CC1)c1cccc(C(=O)O)c1 [Compound C29]	nM	3.4
CN(C(=O)N1CCC(C(=O)c2ccc3nnn(C)c3c2)CC1)c1ccc(C(=O)O)cc1 [Compound C34]	nM	2.6
CN(C(=O)N1CCC(C(=O)c2ccc3c(c2)ncn3C)CC1)c1ccc(C(=O)O)cc1 [Compound C30]	nM	17
CN(C(=O)N1CCC(C(=O)c2ccc3c(c2)cc(C(=O)O)n3C)CC1)c1ccc(F)cc1 [Compound C5]	nM	1
CN(C(=O)N1CCC(C(=O)c2ccc3c(C(=O)O)nn(C)c3c2)CC1)c1ccc(F)cc1 [Compound C9]	nM	3.29
CN(C(=O)N1CCC(C(=O)c2ccc3cnn(C)c3c2)CC1)c1ccc(C(=O)O)nc1 [Compound C21]	nM	37
CN(C(=O)N1CCC(C(=O)c2ccc3c(cnn3C)c2)CC1)c1cccc(C(=O)O)c1 [Compound C24]	nM	1.3
CCN(C(=O)N1CCC(C(=O)c2ccc3c(cnn3C)c2)CC1)c1cccc(C(=O)O)c1 [Compound C25]	nM	1.8
CN(C(=O)N1CCC(C(=O)c2ccc3c(c2)ncn3C)CC1)c1cccc(C(=O)O)c1 [Compound C32]	nM	19
